target: MMP-14 (Homo sapiens, UniProt P50281)
method-summary: MMP-14 enzyme inhibition assay (coumarin-labelled peptide substrate)
Assay type: biochemical
test-parameters: @ 5 μM; read-out: percentage inhibition MMP14
quantity-kind: inhibition at 5 µM (%)
The answer is to be given in %; state only the numeric part.

As a guide, the following entries are already answered.
molecule	target	inhibition at 5 µM, %
O=CN(O)[C@H](CS(=O)(=O)N1Cc2ccc(F)cc2C1)[C@H]1CCCO1	MMP-14 (Homo sapiens, UniProt P50281)	78
COc1cc2c(cc1OC)CN(S(=O)(=O)CC(CCc1ccccc1)N(O)C=O)CC2 (stereo not drawn)	MMP-14 (Homo sapiens, UniProt P50281)	0
CC(C)c1ccc2c(c1)CCN(S(=O)(=O)C[C@H]([C@H]1CCCO1)N(O)C=O)C2	MMP-14 (Homo sapiens, UniProt P50281)	92
O=CN(O)C(CS(=O)(=O)N1CCc2cc(Cl)c(Cl)cc2C1)C1CCCC1 (stereo not drawn)	MMP-14 (Homo sapiens, UniProt P50281)	78
CCC(CC)C(CS(=O)(=O)N1CCc2ccc(OC)cc2C1)N(O)C=O (stereo not drawn)	MMP-14 (Homo sapiens, UniProt P50281)	49
O=CN(O)C(CS(=O)(=O)N1CCc2ccc(Cl)cc2C1)C1CCCC1 (stereo not drawn)	MMP-14 (Homo sapiens, UniProt P50281)	45

Consider the record given below.
Prompt: Which inhibition at 5 µM value is on record for O=CN(O)C1(CS(=O)(=O)N2CCc3ccc(Cl)cc3C2)CCCC1 ?
Completion: 75

###

Values of log10 IC50 reported for gelatinase A (MMP-2) (Homo sapiens, UniProt P08253) appear below.
Response schema: value (number) is log10 of IC50 in units of µM.

Worked examples follow.
compound	quantity-kind	measured-value
O=CN(O)C(CS(=O)(=O)N1CCc2ccc(-c3ccc(F)cc3)cc2C1)C1CC1 (centres unmarked)	log10 IC50	-0.66
O=CN(O)C(CCc1ccccc1)CS(=O)(=O)N1Cc2ccccc2C1 (centres unmarked)	log10 IC50	-0.49
CC1(C)OC[C@H](C(CS(=O)(=O)N2Cc3ccccc3C2)N(O)C=O)O1 (some centres unmarked)	log10 IC50	-1.11

Field: next compound
Prompt: Recorded log10 IC50 of CC(C)(C)CC(CS(=O)(=O)N1CCc2ccc(Cl)cc2C1)N(O)C=O (centres unmarked) , please.
Completion: -1.06

###

target: MMP-14 (Homo sapiens, UniProt P50281)
method-summary: MMP-14 enzyme inhibition assay (coumarin-labelled peptide substrate)
Type: biochemical
test-parameters: @ 5 μM; read-out: percentage inhibition MMP14
quantity-kind: inhibition at 5 µM (%)
The answer is to be given in %; state only the numeric part.

compound	target	inhibition at 5 µM / %
COc1ccc2c(c1)CN(S(=O)(=O)CC(CCC1CCCO1)N(O)C=O)CC2 (centres unmarked)	MMP-14 (Homo sapiens, UniProt P50281)	30
CCCOc1ccc2c(c1)CN(S(=O)(=O)CC(CC(C)(C)C)N(O)C=O)CC2 (centres unmarked)	MMP-14 (Homo sapiens, UniProt P50281)	54
CC(C)(C)CC(CS(=O)(=O)N1CCc2ccc(Cl)cc2C1)N(O)C=O (centres unmarked)	MMP-14 (Homo sapiens, UniProt P50281)	74
O=CN(O)C(CS(=O)(=O)N1Cc2ccc(F)cc2C1)C1CCCC1 (centres unmarked)	MMP-14 (Homo sapiens, UniProt P50281)	15
COc1cc2c(cc1OC)CN(S(=O)(=O)CC(N(O)C=O)C(C)(C)C)CC2 (centres unmarked)	MMP-14 (Homo sapiens, UniProt P50281)	0

Prompt: Tell me the measured inhibition at 5 µM of CC(C)c1ccc2c(c1)CCN(S(=O)(=O)CC(C1CC1)N(O)C=O)C2 (centres unmarked) , please.
Completion: 95

Prompt: What about this compound? O=CN(O)C(CS(=O)(=O)N1CCc2ccc(-c3ccc(F)cc3)cc2C1)C1CC1 (centres unmarked)
Completion: 92

Prompt: Now the same for CC(C)(Cc1ccccc1)C(CS(=O)(=O)N1CCc2cc(C(F)(F)F)ccc2C1)N(O)C=O (centres unmarked)
Completion: 19
